run.parameters: in n-propanol, 323.15 K
experimental.readout: solubility (mole fraction)
Give a plain numeric answer without units written out.

Asked: // lookup solubility (mole fraction) for "CC(=O)[C@H]1CC[C@H]2[C@@H]3CCC4=CC(=O)CC[C@]4(C)[C@H]3CC[C@]12C"
Given back: 0.0614

* * *

run.parameters: in THF, 278.15 K
experimental.readout: solubility (mole fraction)

Asked: Which solubility (mole fraction) is reported for this molecule? "CC(=O)[C@H]1CC[C@H]2[C@@H]3CCC4=CC(=O)CC[C@]4(C)[C@H]3CC[C@]12C"
Given back: 0.0598

* * *

run.parameters: in THF, 298.15 K
experimental.readout: solubility (mole fraction)

Asked: So what does the record say about solubility (mole fraction) for "CC(=O)[C@H]1CC[C@H]2[C@@H]3CCC4=CC(=O)CC[C@]4(C)[C@H]3CC[C@]12C" ?
Given back: 0.109

* * *

run.parameters: in methanol, 298.15 K
experimental.readout: solubility (mole fraction)
Lab note: write the figure by itself, no unit.

Asked: Which solubility (mole fraction) is reported for this molecule? "CC(=O)[C@H]1CC[C@H]2[C@@H]3CCC4=CC(=O)CC[C@]4(C)[C@H]3CC[C@]12C"
Given back: 0.0092

* * *

run.parameters: in n-propanol, 278.15 K
experimental.readout: solubility (mole fraction)
// response body must contain only the number

Asked: Which solubility (mole fraction) value belongs to "CC(=O)[C@H]1CC[C@H]2[C@@H]3CCC4=CC(=O)CC[C@]4(C)[C@H]3CC[C@]12C" ?
Given back: 0.00527

* * *

run.parameters: in n-propanol, 288.15 K
experimental.readout: solubility (mole fraction)
Would you mind answering with just the numeric figure?

Asked: Reported solubility (mole fraction), molecule "CC(=O)[C@H]1CC[C@H]2[C@@H]3CCC4=CC(=O)CC[C@]4(C)[C@H]3CC[C@]12C" : ____
Given back: 0.00969

* * *

run.parameters: in n-propanol, 293.15 K
experimental.readout: solubility (mole fraction)
Provide a numeric answer; units are not to be included.

Asked: Look up solubility (mole fraction) for this compound: "CC(=O)[C@H]1CC[C@H]2[C@@H]3CCC4=CC(=O)CC[C@]4(C)[C@H]3CC[C@]12C"
Given back: 0.0131

* * *

run.parameters: in methanol, 288.15 K
experimental.readout: solubility (mole fraction)
Form rule: numeric answer, no unit written next to it.

Asked: So what's the measured solubility (mole fraction) for this one? "CC(=O)[C@H]1CC[C@H]2[C@@H]3CCC4=CC(=O)CC[C@]4(C)[C@H]3CC[C@]12C"
Given back: 0.00472

* * *

run.parameters: in ethanol, 308.15 K
experimental.readout: solubility (mole fraction)
Please state the value as a number alone, without comment.

Asked: // query solubility (mole fraction) value for entry "CC(=O)[C@H]1CC[C@H]2[C@@H]3CCC4=CC(=O)CC[C@]4(C)[C@H]3CC[C@]12C"
Given back: 0.0192

* * *

run.parameters: in n-heptane, 298.15 K
experimental.readout: solubility (mole fraction)
Number, no unit, nothing else.

Asked: Query (compound): "CC(=O)[C@H]1CC[C@H]2[C@@H]3CCC4=CC(=O)CC[C@]4(C)[C@H]3CC[C@]12C" ; field requested: solubility (mole fraction)
Given back: 0.000617

* * *

run.parameters: in ethyl acetate, 293.15 K
experimental.readout: solubility (mole fraction)
The answer should be a number; do not append a unit.

Asked: What does the data say about its solubility (mole fraction)? Entry: "CC(=O)[C@H]1CC[C@H]2[C@@H]3CCC4=CC(=O)CC[C@]4(C)[C@H]3CC[C@]12C"
Given back: 0.0266

* * *

run.parameters: in toluene, 288.15 K
experimental.readout: solubility (mole fraction)
Write the value as a bare number.

Asked: Look up solubility (mole fraction): "CC(=O)[C@H]1CC[C@H]2[C@@H]3CCC4=CC(=O)CC[C@]4(C)[C@H]3CC[C@]12C"
Given back: 0.102

* * *

run.parameters: in acetone, 283.15 K
experimental.readout: solubility (mole fraction)
// no unit, no text: just the number

Asked: Field request: solubility (mole fraction) | item: "CC(=O)[C@H]1CC[C@H]2[C@@H]3CCC4=CC(=O)CC[C@]4(C)[C@H]3CC[C@]12C"
Given back: 0.0187

* * *

run.parameters: in acetonitrile, 288.15 K
experimental.readout: solubility (mole fraction)
API doc: respond with a numeric literal and nothing else, no unit.

Asked: What measured solubility (mole fraction) goes with "CC(=O)[C@H]1CC[C@H]2[C@@H]3CCC4=CC(=O)CC[C@]4(C)[C@H]3CC[C@]12C" ?
Given back: 0.0131

* * *

run.parameters: in isopropanol, 293.15 K
experimental.readout: solubility (mole fraction)
Answer with a number only.

Asked: Item "CC(=O)[C@H]1CC[C@H]2[C@@H]3CCC4=CC(=O)CC[C@]4(C)[C@H]3CC[C@]12C" has what recorded solubility (mole fraction)?
Given back: 0.00841

* * *

run.parameters: in n-butanol, 298.15 K
experimental.readout: solubility (mole fraction)
Response field accepts a number only; no unit should be typed.

Asked: Which measured solubility (mole fraction) value corresponds to "CC(=O)[C@H]1CC[C@H]2[C@@H]3CCC4=CC(=O)CC[C@]4(C)[C@H]3CC[C@]12C" ?
Given back: 0.0211

* * *

run.parameters: in n-butanol, 303.15 K
experimental.readout: solubility (mole fraction)
Reply: number alone, nothing else.

Asked: Query: solubility (mole fraction); subject: "CC(=O)[C@H]1CC[C@H]2[C@@H]3CCC4=CC(=O)CC[C@]4(C)[C@H]3CC[C@]12C"
Given back: 0.0268

* * *

run.parameters: in toluene, 283.15 K
experimental.readout: solubility (mole fraction)
Answer using only a numeral; do not append any unit.

Asked: Given "CC(=O)[C@H]1CC[C@H]2[C@@H]3CCC4=CC(=O)CC[C@]4(C)[C@H]3CC[C@]12C" , state its recorded solubility (mole fraction).
Given back: 0.0907

* * *

run.parameters: in n-butanol, 308.15 K
experimental.readout: solubility (mole fraction)
# respond with the number and nothing more

Asked: Name the reported solubility (mole fraction) value associated with the molecule "CC(=O)[C@H]1CC[C@H]2[C@@H]3CCC4=CC(=O)CC[C@]4(C)[C@H]3CC[C@]12C"
Given back: 0.0346

* * *

run.parameters: in n-heptane, 308.15 K
experimental.readout: solubility (mole fraction)

Asked: Field request: solubility (mole fraction) | item: "CC(=O)[C@H]1CC[C@H]2[C@@H]3CCC4=CC(=O)CC[C@]4(C)[C@H]3CC[C@]12C"
Given back: 0.00135

* * *

run.parameters: in ethanol, 283.15 K
experimental.readout: solubility (mole fraction)
Note: the reply should be a number with no unit written.

Asked: Data request, read-out solubility (mole fraction), for "CC(=O)[C@H]1CC[C@H]2[C@@H]3CCC4=CC(=O)CC[C@]4(C)[C@H]3CC[C@]12C"
Given back: 0.00455

* * *

run.parameters: in acetone, 308.15 K
experimental.readout: solubility (mole fraction)
Would you mind answering with just the numeric figure?

Asked: Endpoint output: solubility (mole fraction) of "CC(=O)[C@H]1CC[C@H]2[C@@H]3CCC4=CC(=O)CC[C@]4(C)[C@H]3CC[C@]12C" . Value?
Given back: 0.0617

* * *

run.parameters: in methanol, 283.15 K
experimental.readout: solubility (mole fraction)
Lab note: write the figure by itself, no unit.

Asked: Bench note: what solubility (mole fraction) did "CC(=O)[C@H]1CC[C@H]2[C@@H]3CCC4=CC(=O)CC[C@]4(C)[C@H]3CC[C@]12C" show?
Given back: 0.00335

* * *

run.parameters: in acetonitrile, 318.15 K
experimental.readout: solubility (mole fraction)
Just the number, please.

Asked: Would you kindly share the measured solubility (mole fraction) for "CC(=O)[C@H]1CC[C@H]2[C@@H]3CCC4=CC(=O)CC[C@]4(C)[C@H]3CC[C@]12C" ?
Given back: 0.0646

* * *

run.parameters: in ethyl acetate, 298.15 K
experimental.readout: solubility (mole fraction)
I only need the number, thanks.

Asked: I have this compound here, "CC(=O)[C@H]1CC[C@H]2[C@@H]3CCC4=CC(=O)CC[C@]4(C)[C@H]3CC[C@]12C" , and I need its recorded solubility (mole fraction).
Given back: 0.0321

* * *

run.parameters: in ethanol, 288.15 K
experimental.readout: solubility (mole fraction)
Write no unit; give the number alone.

Asked: // solubility (mole fraction) lookup, key: "CC(=O)[C@H]1CC[C@H]2[C@@H]3CCC4=CC(=O)CC[C@]4(C)[C@H]3CC[C@]12C"
Given back: 0.00623

* * *

run.parameters: in acetone, 323.15 K
experimental.readout: solubility (mole fraction)

Asked: Data request, read-out solubility (mole fraction), for "CC(=O)[C@H]1CC[C@H]2[C@@H]3CCC4=CC(=O)CC[C@]4(C)[C@H]3CC[C@]12C"
Given back: 0.116

* * *

run.parameters: in THF, 323.15 K
experimental.readout: solubility (mole fraction)
Write the number on its own, no unit after it.

Asked: If you can, please state the reported solubility (mole fraction) value of "CC(=O)[C@H]1CC[C@H]2[C@@H]3CCC4=CC(=O)CC[C@]4(C)[C@H]3CC[C@]12C" .
Given back: 0.209
